Data provenance is patent US20250163167A1.

- experimental target: T1, human IL-10 receptor (hIL-10R alpha and beta chains) on HEK-Blue IL-10 reporter cells (human, UniProt Q13651 22-578; Q08334 20-325)
- T1 sequence 1: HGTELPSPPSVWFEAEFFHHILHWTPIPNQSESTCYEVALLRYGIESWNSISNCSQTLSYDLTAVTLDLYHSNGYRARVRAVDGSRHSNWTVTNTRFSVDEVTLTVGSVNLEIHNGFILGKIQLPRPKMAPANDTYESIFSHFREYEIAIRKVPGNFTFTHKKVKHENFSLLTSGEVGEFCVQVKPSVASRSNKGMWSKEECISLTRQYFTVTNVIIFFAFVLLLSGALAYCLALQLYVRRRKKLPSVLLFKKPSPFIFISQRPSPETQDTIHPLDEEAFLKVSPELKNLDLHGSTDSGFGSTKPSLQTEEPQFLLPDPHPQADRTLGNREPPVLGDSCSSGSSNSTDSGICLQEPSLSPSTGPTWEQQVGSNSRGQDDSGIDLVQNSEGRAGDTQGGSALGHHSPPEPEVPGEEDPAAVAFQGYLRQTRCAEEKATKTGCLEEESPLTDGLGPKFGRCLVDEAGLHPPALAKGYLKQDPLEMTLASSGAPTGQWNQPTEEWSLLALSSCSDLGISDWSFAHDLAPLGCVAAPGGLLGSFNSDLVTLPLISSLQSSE
- T1 sequence 2: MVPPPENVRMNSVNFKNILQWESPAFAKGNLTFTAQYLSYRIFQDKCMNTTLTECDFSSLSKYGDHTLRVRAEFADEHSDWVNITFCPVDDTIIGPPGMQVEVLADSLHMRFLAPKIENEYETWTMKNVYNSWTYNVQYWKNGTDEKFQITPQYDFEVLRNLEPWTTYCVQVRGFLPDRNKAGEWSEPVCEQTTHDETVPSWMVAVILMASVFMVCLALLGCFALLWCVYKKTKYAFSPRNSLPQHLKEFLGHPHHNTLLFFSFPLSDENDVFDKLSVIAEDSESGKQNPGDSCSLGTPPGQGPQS
- run description: cell-based or functional assay

{"columns": ["binder", "Abs 630 (100 nM) (Abs 630)"],
 "data": [
  ["IL10R binding molecule of SEQ ID NO: 315 (bispecific antibody) QVQLQESGGGSVQAGGSLRLSCAASGYTYSSYCMGWFRQAPGKEREGVAHIDSDGSTSYADSVKGRFTISKDNAKNTLYLQMNSLKPEDTAMYYCAADPIPGPGYCDGGPNKYWGQGTQVTVSSGGGSQVQLQESGGGSVQAGGSLRLSCAVSGYAYSTYCMGWFRQAPGKEREGVAAIDSGGSTSYADSVKGRFTISKDNAKNTLYLRMNSLKPEDTAMYYCAAVPPPPDGGSCLFLGPEIKVSKADFRYWGQGTQVTVSSASHHHHHH", 0.41]
]}
